- Test system: TDP1+/+ MEFs
- ASSAY_PROCEDURE: Cytotoxicity assay, TDP1+/+ MEFs
- Format: cell-based
PROPERTY_NAME: pIC50
Expect pIC50 as a plain number equal to -log10 of the molar concentration.

Problem: Name the value of pIC50 reported for CC[C@@]1(O)C(=O)OCc2c1cc1n(c2=O)Cc2cc3ccccc3nc2-1 [Camptothecin, reference compound] when tested on TDP1+/+ MEFs.
Result: 5.55

---

Examples of molecules with documented IC50 follow.
- MEASURED_TARGET: endogenous TopI from the whole cell extracts of human breast adenocarcinoma (MCF7) cell (Homo sapiens, UniProt P11387)
- Construct: TopI enzyme in the extract is conserved in its native structure among a plethora of other cellular proteins; endogenous in cells
- Sequence (P11387 1-765): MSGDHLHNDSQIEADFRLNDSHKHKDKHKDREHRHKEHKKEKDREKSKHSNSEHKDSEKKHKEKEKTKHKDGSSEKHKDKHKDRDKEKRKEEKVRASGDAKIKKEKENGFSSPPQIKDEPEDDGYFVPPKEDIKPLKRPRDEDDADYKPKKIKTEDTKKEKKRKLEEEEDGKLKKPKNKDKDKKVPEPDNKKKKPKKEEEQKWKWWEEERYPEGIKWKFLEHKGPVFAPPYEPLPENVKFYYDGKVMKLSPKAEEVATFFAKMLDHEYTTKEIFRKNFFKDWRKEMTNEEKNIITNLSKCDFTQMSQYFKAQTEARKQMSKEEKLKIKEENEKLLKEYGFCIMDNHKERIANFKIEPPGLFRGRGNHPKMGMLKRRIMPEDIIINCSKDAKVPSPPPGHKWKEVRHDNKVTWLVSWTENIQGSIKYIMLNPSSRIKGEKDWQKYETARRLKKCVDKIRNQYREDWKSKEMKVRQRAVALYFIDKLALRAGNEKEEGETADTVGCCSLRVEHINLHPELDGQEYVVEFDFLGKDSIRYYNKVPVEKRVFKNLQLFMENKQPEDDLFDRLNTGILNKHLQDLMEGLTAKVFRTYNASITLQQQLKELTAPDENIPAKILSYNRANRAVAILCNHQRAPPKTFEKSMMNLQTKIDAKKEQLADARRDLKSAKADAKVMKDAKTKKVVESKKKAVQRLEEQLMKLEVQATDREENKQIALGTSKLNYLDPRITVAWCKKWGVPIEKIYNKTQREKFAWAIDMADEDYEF
- ASSAY_PROCEDURE: Plasmid DNA relaxation assay with MCF7 cell lysates (ex vivo)
- CONDITION: MCF7 cell lysates as source of TopI
Numbers only here, please. The scale is nM.

Some entries whose results are on file:
Problem: Respond only with IC50 recorded for Nc1ccc(-c2ccc3ncc(-c4nnco4)c(NCCCn4ccnc4)c3c2)cc1 [Compound 20]
Result: 2250

Problem: Answer with the recorded IC50 for the molecule listed here: COc1ccc(-c2ccc3ncc(-c4nnco4)c(NCCCn4ccnc4)c3c2)cn1 [Compound 33]
Result: 625

***
Problem: Provide one value: measured IC50 of COc1cccc(-c2ccc3ncc(-c4nnco4)c(NCCCn4ccnc4)c3c2)c1 [Compound 82]
Result: 4110

Problem: Please report the measured IC50 for Nc1ccc(-c2ccc3ncc(-c4nnco4)c(NCCCn4ccnc4)c3c2)cn1 [Compound 24]
Result: 1830

Cited source for all entries: patent US20210246128A1
